assayed-system: Chk-1 kinase (Homo sapiens (Human))
Sequence (O14757 whole entry): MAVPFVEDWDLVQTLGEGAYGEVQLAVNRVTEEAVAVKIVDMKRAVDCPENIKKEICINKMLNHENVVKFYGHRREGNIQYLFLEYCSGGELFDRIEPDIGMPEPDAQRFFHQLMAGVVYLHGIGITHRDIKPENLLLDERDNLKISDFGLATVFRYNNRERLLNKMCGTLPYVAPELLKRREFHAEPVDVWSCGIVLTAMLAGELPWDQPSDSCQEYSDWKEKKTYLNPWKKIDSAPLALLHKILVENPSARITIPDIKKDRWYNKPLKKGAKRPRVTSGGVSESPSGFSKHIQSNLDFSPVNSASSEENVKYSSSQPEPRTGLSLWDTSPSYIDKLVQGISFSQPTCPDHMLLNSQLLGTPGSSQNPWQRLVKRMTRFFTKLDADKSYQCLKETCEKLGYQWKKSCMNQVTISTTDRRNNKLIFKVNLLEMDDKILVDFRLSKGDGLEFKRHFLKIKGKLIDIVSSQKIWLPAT
assay-procedure: Chk-1 Kinase Inhibiting Activity (33P-ATP filter assay, CHKtide substrate)
Assay type: biochemical
experimental-context: against Chk-1 kinase; read-out: IC50
Counter-ions that a name gives are not always drawn.
quantity: pIC50
Keep it numeric: pIC50 is minus log10 of the concentration in mol/L.

For the compound "COc1cc(OC[C@@H]2CCCN2C(C)C)ccc1-c1cc(Nc2cnc(C#N)cn2)n[nH]1" , the measured pIC50 on Chk-1 kinase (Homo sapiens (Human)) was 10.34

For the compound "CCN1CCO[C@H](c2ccc(-c3cc(Nc4cnc(C#N)cn4)n[nH]3)c(OC)c2)C1" , the measured pIC50 on Chk-1 kinase (Homo sapiens (Human)) was 10.66

For the compound "COc1cc(OC2CCN(C(C)C)CC2)ccc1-c1cc(Nc2cnc(C#N)cn2)n[nH]1" , the measured pIC50 on Chk-1 kinase (Homo sapiens (Human)) was 10.27

For the compound "COc1cc(CNC(C)C)ccc1-c1cc(Nc2cnc(C#N)cn2)n[nH]1" , the measured pIC50 on Chk-1 kinase (Homo sapiens (Human)) was 10.15

For the compound COc1cc(C2(F)CCN(C)CC2)ccc1-c1cc(Nc2cnc(C#N)cn2)n[nH]1 [Example 64, hydrochloride] , the measured pIC50 on Chk-1 kinase (Homo sapiens (Human)) was 9.82

For the compound "COc1cc(CNCC2CCN(C(=O)C3CC3)CC2)ccc1-c1cc(Nc2cnc(C#N)cn2)n[nH]1" , the measured pIC50 on Chk-1 kinase (Homo sapiens (Human)) was 10.47

For the compound "COc1cc(O[C@@H]2CCN(C)C2)ccc1-c1cc(Nc2cnc(C#N)cn2)n[nH]1" , the measured pIC50 on Chk-1 kinase (Homo sapiens (Human)) was 9.16

For the compound "CCN1CCC(CN(C)c2ccc(-c3cc(Nc4cnc(C#N)cn4)n[nH]3)c(OC)c2)CC1" , the measured pIC50 on Chk-1 kinase (Homo sapiens (Human)) was 11.08

For the compound "COc1cc(C2CCNCC2)ccc1-c1cc(Nc2cnc(Cl)cn2)n[nH]1" , the measured pIC50 on Chk-1 kinase (Homo sapiens (Human)) was 9.14

For the compound CCN1CC[C@@H](OCc2ccc(-c3cc(Nc4cnc(C#N)cn4)n[nH]3)c(OC)c2)C1 [Example 140, hydrochloride] , the measured pIC50 on Chk-1 kinase (Homo sapiens (Human)) was 10.68

For the compound "COc1cc(CN(C)C(C)C)ccc1-c1cc(Nc2cnc(C#N)cn2)n[nH]1" , the measured pIC50 on Chk-1 kinase (Homo sapiens (Human)) was 10.28

For the compound COc1cc(C2CCCNC2)ccc1-c1cc(Nc2cnc(C#N)cn2)n[nH]1 (stereo not shown) , the measured pIC50 on Chk-1 kinase (Homo sapiens (Human)) was 9.74

For the compound "CCN1CCC(Nc2ccc(-c3cc(Nc4cnc(C#N)cn4)n[nH]3)c(OC)c2)CC1" , the measured pIC50 on Chk-1 kinase (Homo sapiens (Human)) was 11.28

For the compound "CCNCc1ccc(-c2cc(Nc3cnc(C#N)cn3)n[nH]2)c(OC)c1" , the measured pIC50 on Chk-1 kinase (Homo sapiens (Human)) was 10.24

For the compound COc1cc(CN2CC[C@@H](F)C2)ccc1-c1cc(Nc2cnc(C#N)cn2)n[nH]1 [Example 123, hydrochloride] , the measured pIC50 on Chk-1 kinase (Homo sapiens (Human)) was 9.80

For the compound COc1cc(OCC2CCCN2C)ccc1-c1cc(Nc2cnc(C#N)cn2)n[nH]1 (stereo not shown) , the measured pIC50 on Chk-1 kinase (Homo sapiens (Human)) was 9.85
